Sourced from ChEMBL document CHEMBL1133468

# remaining at 1 h, 10 µM per record follows
procedure_text: Metabolic stability at a concentration of 10 uM in rat liver microsomes after 1 hr incubation
Assay type: ADME
Field: numeric (%). Do not append units.

Examples from the recorded data:
>>> df
                                   molecule  recorded_number
0  CCN(CC)C(=O)c1ccc(C(c2cccc3cccnc23)N2CCNCC2)cc1 (centres undefined)               52
1  CCN(CC)C(=O)c1ccc(C(c2ccccc2)N2CCNCC2)cc1 (centres undefined)               60
2  C=CCN1C[C@H](C)N([C@H](c2ccc(C(=O)N(CC)CC)cc2)c2cccc(O)c2)C[C@H]1C                4

Pending molecule:
Q: Tell me the measured remaining at 1 h, 10 µM of CCN(CC)C(=O)c1ccc(C(c2cccc3c2OC(C)(C)C3)N2CCNCC2)cc1 (centres undefined) , please.
Ans: 43
